# system_tested: human GST-p38 kinase alpha (Homo sapiens, UniProt Q16539)
# Construct: The coding region of the human p38a cDNA was obtained by PCR-amplification from RNA isolated from the human monocyte cell line THP.1; made in house; host or cells: E. coli DH10B
# Sequence (Q16539 whole entry): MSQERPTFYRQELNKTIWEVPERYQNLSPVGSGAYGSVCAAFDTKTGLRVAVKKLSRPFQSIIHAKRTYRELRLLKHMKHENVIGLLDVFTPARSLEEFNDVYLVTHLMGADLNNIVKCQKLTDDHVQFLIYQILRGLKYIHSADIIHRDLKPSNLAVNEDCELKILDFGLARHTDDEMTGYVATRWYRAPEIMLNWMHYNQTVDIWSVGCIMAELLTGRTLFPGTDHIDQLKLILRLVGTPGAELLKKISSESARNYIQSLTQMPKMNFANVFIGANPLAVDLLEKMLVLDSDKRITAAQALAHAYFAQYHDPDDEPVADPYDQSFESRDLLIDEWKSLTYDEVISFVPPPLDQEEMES
# assay_name: p38 kinase in vitro assay, second format, phosphorylation of EGFRP with 33P-ATP
# Assay type: biochemical
# condition_info: p38^2 IC50, p38α in vitro, EGFRP assay procedure
assay_metric: IC50 (µM)
// return numeric value only (unit: µM, not printed)

IC50 reported for this molecule `c1ccc(-c2n[nH]cc2-c2ccncc2)cc1` : 0.237

###

# System: human TNF
# assay_name: TNF inhibition: human whole blood assay
# Format: cell-based
# condition_info: Homo sapiens, Table 9, human whole blood, LPS; read-out: TNF Inhibition-Human Whole Blood Assay
Counter-ions that a name gives are not always drawn.
Listed below: pIC50 values for each entry.
// field semantics: pIC50 = negative decimal log of concentration (mol/L)

Below: 5 compounds and their reported pIC50.
> print(dat)
                                   compound  assay.metric  recorded.value
1  Fc1ccc(-c2n[nH]c(N3CCC(N4CCCC4)CC3)c2-c2ccncc2)cc1 [Example A-357, trihydrochloride]         pIC50            6.60
2  CC(C)C(CO)Nc1cc(-c2c[nH]nc2-c2ccc(F)cc2)ccn1 (stereo not drawn)         pIC50            7.02
3  NC1CCN(c2[nH]nc(-c3ccc(F)cc3)c2-c2ccncc2)CC1 [Example A-365, trihydrochloride]         pIC50            7.24
4  CCN(CC)CCNc1cc(-c2c[nH]nc2-c2ccc(F)cc2)ccn1         pIC50            6.51
5  CCN1CCC(Nc2cc(-c3c[nH]nc3-c3ccc(F)cc3)ccn2)CC1         pIC50            5.01

Lab entry: human TNF assay, compound CCN(CC)C1CCN(c2n[nH]c(-c3ccc(F)cc3)c2-c2ccncc2)CC1 [Example A-388, trihydrochloride] , pIC50 = 6.47

I looked up CCN(CC)CCCC(C)Nc1cc(-c2c[nH]nc2-c2ccc(F)cc2)ccn1 (stereo not drawn) and its pIC50 for human TNF was 6.17

Tested system human TNF; pIC50 recorded for `C[C@@H](O)CNc1cc(-c2c[nH]nc2-c2ccc(F)cc2)ccn1` was 6.18

Let me check: `OC[C@H](Cc1ccccc1)Nc1cc(-c2c[nH]nc2-c2ccc(F)cc2)ccn1` , system human TNF, measured pIC50 is 4.60

###

# System: TNF-α
# assay_name: LPS stimulation of TNF production by U937 cells
# Assay type: cell-based, human
# condition_info: TNF production, LPS-stimulated human U937 cells; read-out: U937 Cell IC50
assay_metric: IC50

Reported TNF-α IC50 for item `C=CCOC(=O)NCc1[nH]nc(-c2ccc(F)cc2)c1-c1ccncc1` was 10 µM

Form field IC50 for item `Cc1c(-c2ccncc2)c(-c2ccc(F)cc2)nn1CC(=O)NCCc1ccc(Oc2ccccc2)cc1` on TNF-α: 0.78 µM

Item CC(C)(C)C(=O)NC(Cc1ccccc1)c1[nH]nc(-c2ccc(F)cc2)c1-c1ccncc1 (stereo not drawn) was tested on TNF-α; the reported IC50 is > 1 µM

Provenance of the data: patent US6525059B1
